Quick list: ED50 L. mexicana Amastigote per entry.
# System: L. mexicana amastigote
# method notes: alamarBlue viability assay, axenic amastigotes
# Format: cell-based, Leishmania mexicana (MNYC/BZ/62/M379)
# measurement setup: alamarBlue viability vs DMSO control, 2–100 µM peptide, 1 h preincubation in serum-free media at 33 °C, then complete media 24 h, alamarBlue 4 h, fluorescence, mean (range) of at least 3 independent experiments in triplicate
readout: ED50 L. mexicana Amastigote

substance="FLPLIGRVLSGIL-NH2 [Temporin A, amphibian-derived temporin antimicrobial peptide, […]-NH2]" recorded_result="~100 µM"
substance="FLSGIVGMLGKLF-NH2 [Temporin 1Sa, amphibian-derived temporin antimicrobial peptide, […]-NH2]" recorded_result="42 (35–44) µM"
substance="LLPIVGNLLKSLL-NH2 [Temporin B, amphibian-derived temporin antimicrobial peptide, […]-NH2]" recorded_result=">100 µM"
substance="FVQWFSKFLGRIL-NH2 [Temporin L, amphibian-derived temporin antimicrobial peptide, …-NH2]" recorded_result="83 (46–93) µM"

###

Quick list: ED50 L. mexicana ∆lpg2 per entry.
# Tested on: L. mexicana ∆lpg2 promastigotes (lacking LPG and PPG)
# method notes: alamarBlue viability assay, ∆lpg2 mutant promastigotes
# Type: cell-based, Leishmania mexicana
# measurement setup: ∆lpg2 mutant promastigotes; alamarBlue viability vs DMSO control; 2–100 µM peptide; 1 h preincubation serum-free at 26 °C, then 24 h; mean (range) of at least 3 independent experiments in triplicate
readout: ED50 L. mexicana ∆lpg2

substance="LLPIVGNLLKSLL-NH2 [Temporin B, amphibian-derived temporin antimicrobial peptide, […]-NH2]" readout="ED50 L. mexicana ∆lpg2" recorded_result="41 (40–41) µM"
substance="FLSGIVGMLGKLF-NH2 [Temporin 1Sa, amphibian-derived temporin antimicrobial peptide, […]-NH2]" readout="ED50 L. mexicana ∆lpg2" recorded_result="31 (28–35) µM"
substance="FVQWFSKFLGRIL-NH2 [Temporin L, amphibian-derived temporin antimicrobial peptide, …-NH2]" readout="ED50 L. mexicana ∆lpg2" recorded_result="9 (8–12) µM"
substance="FLPLIGRVLSGIL-NH2 [Temporin A, amphibian-derived temporin antimicrobial peptide, […]-NH2]" readout="ED50 L. mexicana ∆lpg2" recorded_result="26 (21–39) µM"
